Assay Info: Toxicity liver stage against HepG2, at 10uM
Format: cell-based
Set-up: test concentration 10 uM, cell line HepG2-A16-CD81EGFP
Measurement Context: human, HepG2-A16-CD81EGFP cells; read-out: INHIBITION
Reported cytotoxicity at 10 µM values are given for each entry in this list.
The reply should contain only the number, in %.

1) Cc1cc(C)n(CC(C)Nc2ncnc3c2CCNC3)n1 (stereo unspecified): 3.37

Ask: Return the recorded cytotoxicity at 10 µM value; entry: O=C(NC1CCC1)[C@@H]1CCO[C@@H]2CCN(C3CCCC3)C[C@H]21
Reply: 9.05

Ask: Answer with reported cytotoxicity at 10 µM of CCn1cnnc1CN(C)Cc1nc(-c2cc(OC)ccc2F)oc1C
Reply: -1.32

Ask: Please look at this molecule and report its cytotoxicity at 10 µM: O=C(NCCc1nnc2n1CCC2)NCC1(c2cccc(F)c2)CC1
Reply: -7.94

Ask: Give cytotoxicity at 10 µM for Cc1ccc(NC(=O)C2CSCN2C(=O)c2cnn(C)c2)c(C)c1 (stereo unspecified)
Reply: -3.97

Ask: For the molecule CCNC(=O)[C@@H]1C[C@H](N)CN1C1CCN(c2ccccc2OC)CC1 , give its measured cytotoxicity at 10 µM value.
Reply: -43.9

Ask: Dear colleague, please send me the reported cytotoxicity at 10 µM for CCN(Cc1ccoc1)C(=O)Nc1ccccc1CN1CCOCC1 when you can.
Reply: -14.8

---

Quick reference: cytotoxicity at 10 µM of the listed items.
Assay Info: Toxicity liver stage against HepG2, at 10uM
Type: cell-based
Parameters: test concentration 10 uM, cell line HepG2-A16-CD81EGFP
Measurement Context: human, HepG2-A16-CD81EGFP cells; read-out: INHIBITION
Report as a plain number; the unit % is understood.

Ask: Read the entry OC1(CNCCc2csc(-c3ncccn3)n2)CCNC1 (stereo unspecified) and write its reported cytotoxicity at 10 µM.
Reply: -8.44

Ask: Using the record for Cn1cnc2c1CCN(Cc1cccc(OCC(N)=O)c1)C2 , state its measured cytotoxicity at 10 µM.
Reply: -9.98

Ask: Answer with the recorded cytotoxicity at 10 µM of COc1c(CNCCNC(=O)c2ccccc2)c(C)nn1C only.
Reply: -4.74

---

Assay Info: Toxicity liver stage against HepG2, at 10uM
Assay type: cell-based
Design: test concentration 10 uM, cell line HepG2-A16-CD81EGFP
Measurement Context: human, HepG2-A16-CD81EGFP cells; read-out: INHIBITION
Measured Endpoint: cytotoxicity at 10 µM (%)
Could you give me the number in %? Just the number is fine.

For orientation, consider the following solved cases.
1. CCC(C)(CO)NC(=O)Nc1cc2c(cc1SC)OCCO2 (stereo unspecified): -10.5
2. COC1CCN(CCNC(=O)NCC(C)c2cccc(C)c2)CC1 (stereo unspecified): -4.47
3. CC(C)N(Cc1ccc(Cl)c(Cl)c1)C(=O)CCn1cncn1: 6.63

Ask: Return the recorded cytotoxicity at 10 µM value; entry: CCc1ccc(CN2C[C@@H](C)C3(CCN(CC(=O)N(C)C)C3=O)C2)o1 (stereo partly specified)
Reply: 1.11

Ask: Assign cytotoxicity at 10 µM to the following record: O=c1[nH]nc2c(S(=O)(=O)N3CCN(c4ccc(F)cc4)CC3)cccn12
Reply: 11.8

---

Assay Info: Toxicity liver stage against HepG2, at 10uM
Assay type: cell-based
Set-up: test concentration 10 uM, cell line HepG2-A16-CD81EGFP
Measurement Context: human, HepG2-A16-CD81EGFP cells; read-out: INHIBITION
Listing of entries alongside the reported cytotoxicity at 10 µM.
Write your answer as a measured quantity: the number, then the unit.

Consider the worked cases shown below.
1. CN(Cc1ccccn1)C(=O)c1ccc2c(c1O)OC(C)(C)C2: -11.8%
2. NC(=O)COc1ccc(CNCc2cc(F)cc(F)c2)cc1: -7.85%
3. CCCNC(=O)Cn1nc(C(C)C)c2cnn(C(C)(C)C)c2c1=O: -20%
4. Cn1cc(C(=O)N2CCCN(c3cccnn3)CC2)c2ccccc21: 4%
5. Cc1cc(C)nc(N2CCC(C(=O)Nc3n[nH]c(CC(C)C)n3)CC2)n1: 5.61%

Ask: Input CN1CCc2c(C#N)c(NCCN3CCOCC3)n3cnnc3c2C1 , output reported cytotoxicity at 10 µM.
Reply: -2.84%

Ask: Return reported cytotoxicity at 10 µM. Input molecule: O=C(Nc1ccc(-n2cccn2)cc1)N1CCC(O)C1 (stereo unspecified)
Reply: 19.9%

Ask: Supply reported cytotoxicity at 10 µM belonging to this molecule: O=C(CCc1ccccc1)N1C[C@@H]2CN(Cc3ccoc3)CCO[C@@H]2C1
Reply: -77.8%

Ask: Given the molecule CCN(CC1CCCO1)C(=O)Nc1cccc(Cl)c1OC (stereo unspecified) , write its reported cytotoxicity at 10 µM.
Reply: -21.4%

Ask: Fill in reported cytotoxicity at 10 µM for this entry: Cc1[nH]ncc1CCCNC(=O)Nc1ccc(C#N)cc1
Reply: 1.8%

Ask: Quote cytotoxicity at 10 µM reported for Cc1nn(CN(CC(C)C)C2CC2)c(=O)c2noc(C)c12 please.
Reply: -3.39%

---

Assay Info: Toxicity liver stage against HepG2, at 10uM
Assay type: cell-based
Set-up: test concentration 10 uM, cell line HepG2-A16-CD81EGFP
Measurement Context: human, HepG2-A16-CD81EGFP cells; read-out: INHIBITION
Measured Endpoint: cytotoxicity at 10 µM (%)
Kindly provide the numeric value in % only, without the unit symbol.

Some solved entries appear below for comparison.
1) CCS(=O)(=O)c1ccc(N2CCC(NC(=O)c3cnn(C)c3)CC2)cc1: -1.69
2) COC(=O)c1ccc(CNC(=O)Nc2ccc(=O)n(C)c2)cc1: -6.8
3) CCn1c(C2CCCN(C(=O)c3ccc[nH]3)C2)nn(CCN(C)C)c1=O (configuration not stated): 2.67
4) Cc1ccc(F)cc1C(=O)N1CCN(S(C)(=O)=O)[C@@H](C)C1: -2.53
5) COc1ccnc(N2Cc3cnc(C(C)(C)C)nc3C2)n1: -9.85

Ask: Tell me its cytotoxicity at 10 µM given O=C(CN1CCN(c2ccccc2F)CC1)Nc1ccc(Cl)cn1 as the entry.
Reply: 4.04

Ask: Report measured cytotoxicity at 10 µM; entry is CCC(C)(NCC(=O)Nc1nc(C)cs1)c1nc(C)cs1 (configuration not stated)
Reply: 16.4

Ask: Return value of cytotoxicity at 10 µM for input c1cncc(COC[C@@H]2CCC[C@@]23CNCCO3)c1 , no commentary.
Reply: -106

Ask: Supply measured cytotoxicity at 10 µM of CN(CC1CCOCC1)C1CCCN(c2ccccn2)C1 (configuration not stated) in your reply.
Reply: -0.48

---

Assay Info: Toxicity liver stage against HepG2, at 10uM
Assay type: cell-based
Set-up: test concentration 10 uM, cell line HepG2-A16-CD81EGFP
Measurement Context: human, HepG2-A16-CD81EGFP cells; read-out: INHIBITION
Measured Endpoint: cytotoxicity at 10 µM (%)
The response must be a number in % with no trailing unit.

1) CC(C)(C)NC(=O)CNc1ncccn1: -5.09

Ask: Specify measured cytotoxicity at 10 µM for CCS(=O)(=O)N1CCC(c2nnc(CN3CCCC3)n2C2CC2)CC1 .
Reply: 14.9

Ask: Please give the documented cytotoxicity at 10 µM of Cc1ncsc1CN1CC[C@H](O)[C@@H](n2cnc3c(N)ncnc32)CC1
Reply: -10.8

Ask: Give the measured cytotoxicity at 10 µM for CCS(=O)(=O)c1ccc(N2CCC(NC(=O)c3ccccn3)CC2)cc1
Reply: 10.8

Ask: Note down cytotoxicity at 10 µM recorded for O=C(NCc1ccccc1)[C@@H]1Cc2[nH]cnc2CN1CC1CC1
Reply: 3.17

Ask: For the molecule O=C(NCc1cccnc1-n1cncn1)c1cncc(Br)c1 , report cytotoxicity at 10 µM.
Reply: 10

Ask: Specify cytotoxicity at 10 µM for O=C1N(C2CCOCC2)CCCC12CCN(c1ncccc1Cl)C2 (configuration not stated) and stop.
Reply: -129

Ask: Give the measured cytotoxicity at 10 µM for C[C@@H]1CN(S(=O)(=O)N2CCCC2)C[C@@]1(O)C1CC1
Reply: -5.07

Ask: Entry CC(C)CN1CCN(Cc2nc3ccccc3[nH]2)[C@H]2CS(=O)(=O)C[C@H]21 needs its cytotoxicity at 10 µM filled in; supply it.
Reply: 14.4

---

Assay Info: Toxicity liver stage against HepG2, at 10uM
Format: cell-based
Design: test concentration 10 uM, cell line HepG2-A16-CD81EGFP
Measurement Context: human, HepG2-A16-CD81EGFP cells; read-out: INHIBITION
cytotoxicity at 10 µM by entry:
Respond numerically; units are % and should not be typed.

Here's what some known entries look like.
1. O=C(c1ccncc1Cl)N1CCN(Cc2ccco2)C(CCO)C1 (stereo unspecified): -9.84
2. Cc1ccccc1N1CCN(C(=O)Cc2ccc3c(c2)OCO3)CC1=O: 6.17
3. CCn1nc(C)c2nnn(CC(=O)Nc3ccccc3F)c(=O)c21: 5.37

Ask: Give the value of cytotoxicity at 10 µM reported for the following: CC(C)CCc1nc(CNCC2CN(C)CCO2)cs1 (stereo unspecified)
Reply: -15.2

Ask: Answer with reported cytotoxicity at 10 µM of Cc1ccc(CNC(=O)c2nc3c(n2C)CCN(c2ncccn2)C3)o1
Reply: -119

Ask: Please give the documented cytotoxicity at 10 µM of Cc1csc(CNC(=O)NCC(O)c2ccc(F)cc2)n1 (stereo unspecified)
Reply: 12.1

Cited source for all entries: ChEMBL document CHEMBL4513216
